- System Name: T1, hFc-tagged NKG2A/CD94 protein (NKG2A/CD94-hFc), immunogen A (human, UniProt P26715 94-233; Q13241 32-179, biotin-labeled in the Octet assays (site not stated))
- T1 construct: Heterodimer of the extracellular domains of NKG2A and CD94, each with hFc; also called human-derived NKG2A/CD94-ECD-Fc; hNKG2A/CD94-ECD-Fc; not shown: human IgG Fc fragment (hFc) of the pCpC vector
- T1 sequence (P26715 94-233 limits assumed, chain 1 of 2): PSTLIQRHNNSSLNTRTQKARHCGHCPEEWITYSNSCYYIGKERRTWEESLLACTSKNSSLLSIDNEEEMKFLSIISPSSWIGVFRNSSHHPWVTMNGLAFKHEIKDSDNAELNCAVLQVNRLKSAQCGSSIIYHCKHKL
- T1 sequence (Q13241 32-179 limits assumed, chain 2 of 2): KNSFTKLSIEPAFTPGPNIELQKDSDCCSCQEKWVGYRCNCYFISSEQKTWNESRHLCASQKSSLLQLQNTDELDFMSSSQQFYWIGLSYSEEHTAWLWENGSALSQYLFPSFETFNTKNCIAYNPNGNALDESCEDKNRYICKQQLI
- Assay Procedure: BLI (Octet red96), biotinylated immunogen A on streptavidin sensor, antibody in solution
pKd: −log10 of the molar value.

- Binder: "Tab1 (Z270) (antibody, V domains shown) VH: EVQLVESGGGLVKPGGSLRLSCAASGFTFSSHSMNWVRQAPGKGLEWVSAISSSSSYIYYADSVKGRFTISRDNAKNSLYLQMNSLRAEDTAVYYCAREEWGLPFDYWGQGTLVTVSS VL: AIQLTQSPSSLSASVGDRVTITCRASQGISSALAWYQQKPGKAPKLLIYDASSLKSGVPSRFSGSGSGTDFTLTISSLQPEDFATYYCQQFNSYPLTFGQGTRLEIK"
  pKd: 9.85
- Binder: "Mab033 (antibody, V domains shown) VH: EVQLQQSVAEFVRPGASVRLSCTASGFNIENTYIHWLKQRPEQGLEWIGRIDPANGDTQYDPKFQGKATLTAATSSNTAYLQLSGLTSEDTAIYYCTRYGDYLFYYSLKYWGQGTSVTVSS VL: DIVMTQAAPSVSVTPGESVSISCRSSKSLLHSNGNTYLYWFLQRPGQSPQLLIYRMSNLASGVPDRFSGSGSGTAFTLRISRVEAEDVGVYYCMQHLESPYTFGGGTKLEIK"
  pKd: 10.69
- Binder: "Mpb416 (antibody, V domains shown, also called 12G8 (as full antibody)) VH: QVQLQQSVAELVRPGASVKLSCTASGFNIQNTYIHWVKQRPEQGLEWIGKIDPANGDTKYAPTFQGKATITADTSSNTAYLQLSSLTPEDTAIYYCARYRDYLFYYALGYWGQGTSVTVSS VL: DIVMTQSAPSVPVTPGESVSISCRSSKSLLHSNGNTYLYWFLQRPGQSPQLLIYRMSNLASGVPDRFSGSGSGTAFTLRISRVEAEDVGVYYCMQHLEYPYTFGGGTKLEIK"
  pKd: 10.98
- Binder: "Mab031 (antibody, V domains shown) VH: EVQLQQSVAELVRPGASVRLSCTGSGFNIQNTYIHWVKQRPEQGLEWIGRIDPANGDTKYAPKFQGKATITADTSSNTAYLQLSSLTSEDTAIYYCTRYGNYLYYYSLDYWGQGTSVTVSS VL: DIVMTQAAPSVPVTPGESVSISCRSSKSLLHSNGNTYLYWFLQRPGQSPQLLIYRMSNLASGVPDRFSGSGSGTAFTLRISRVEAEDMGVYYCMQHLEYPYTFGGGTKLEIK"
  pKd: 10.74
- Binder: "Mab032 (antibody, V domains shown) VH: EVQLQQSVAELVRPGASVRLSCTGSGFNIENTYMHWLKQRPEQGLEWIGRIDPADGDTQYAPKFQGKATITTDTSSNTAYLQLSSLTSEDTAIYYCARYGNYLFYYSMDYWGQGTSVTVSS VL: DIVMTQAAPSVPVTPGESVSISCRSSKSLLHSNGNTYLYWFLQRPGQSPQLLIYRMSNLASGVPDRFSGSGSATAFTLRISRVEAEDVGIYYCMQHLEYPYTFGGGTKLEIK"
  pKd: 10.62
